- test-system: T1, TNFR1 (Homo sapiens, UniProt P19438)
- T1 chain: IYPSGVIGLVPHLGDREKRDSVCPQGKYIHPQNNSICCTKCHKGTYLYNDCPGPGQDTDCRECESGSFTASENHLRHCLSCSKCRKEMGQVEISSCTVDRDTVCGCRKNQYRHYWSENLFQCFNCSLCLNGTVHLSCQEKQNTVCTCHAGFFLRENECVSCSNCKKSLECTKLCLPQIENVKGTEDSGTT
- procedure-details: yeast display SC50
Could you label it Satisfied if measured apparent Kd (screen) is 0.5 nM or higher, and Not satisfied otherwise?

• E103A (designed binder) SMEEEVEKAAKEYEKKKKEAIEKHLEKLKAKDKEAAERFLKELEEAAKEYAKDEAKTMSEEEAKRRAKKYKEKVLLSELSEEEQKEIKEAEEKLVRTILKYVAEAAK = Not satisfied
• E61R (designed binder) SMEEEVEKAAKEYEKKKKEAIEKHLEKLKAKDKEAAERFLKELEEAAKEYAKDEAKTMSEREAKRRAKKYKEKVLLSELSEEEQKEIKEAEEKLVRTILKYVEEAAK = Satisfied
• K31G (designed binder) SMEEEVEKAAKEYEKKKKEAIEKHLEKLKAGDKEAAERFLKELEEAAKEYAKDEAKTMSEEEAKRRAKKYKEKVLLSELSEEEQKEIKEAEEKLVRTILKYVEEAAK = Satisfied
• A55S (designed binder) SMEEEVEKAAKEYEKKKKEAIEKHLEKLKAKDKEAAERFLKELEEAAKEYAKDESKTMSEEEAKRRAKKYKEKVLLSELSEEEQKEIKEAEEKLVRTILKYVEEAAK = Satisfied
• A36Q (designed binder) SMEEEVEKAAKEYEKKKKEAIEKHLEKLKAKDKEAQERFLKELEEAAKEYAKDEAKTMSEEEAKRRAKKYKEKVLLSELSEEEQKEIKEAEEKLVRTILKYVEEAAK = Satisfied

In plain terms: is recorded apparent Kd (screen) at least 0.5 nM for H24W (designed binder) SMEEEVEKAAKEYEKKKKEAIEKWLEKLKAKDKEAAERFLKELEEAAKEYAKDEAKTMSEEEAKRRAKKYKEKVLLSELSEEEQKEIKEAEEKLVRTILKYVEEAAK ? Satisfied

In plain terms: is recorded apparent Kd (screen) at least 0.5 nM for V74G (designed binder) SMEEEVEKAAKEYEKKKKEAIEKHLEKLKAKDKEAAERFLKELEEAAKEYAKDEAKTMSEEEAKRRAKKYKEKGLLSELSEEEQKEIKEAEEKLVRTILKYVEEAAK ? Satisfied

In plain terms: is recorded apparent Kd (screen) at least 0.5 nM for E82M (designed binder) SMEEEVEKAAKEYEKKKKEAIEKHLEKLKAKDKEAAERFLKELEEAAKEYAKDEAKTMSEEEAKRRAKKYKEKVLLSELSEMEQKEIKEAEEKLVRTILKYVEEAAK ? Satisfied

In plain terms: is recorded apparent Kd (screen) at least 0.5 nM for A36C (designed binder) SMEEEVEKAAKEYEKKKKEAIEKHLEKLKAKDKEACERFLKELEEAAKEYAKDEAKTMSEEEAKRRAKKYKEKVLLSELSEEEQKEIKEAEEKLVRTILKYVEEAAK ? Satisfied

In plain terms: is recorded apparent Kd (screen) at least 0.5 nM for A46T (designed binder) SMEEEVEKAAKEYEKKKKEAIEKHLEKLKAKDKEAAERFLKELEETAKEYAKDEAKTMSEEEAKRRAKKYKEKVLLSELSEEEQKEIKEAEEKLVRTILKYVEEAAK ? Satisfied

In plain terms: is recorded apparent Kd (screen) at least 0.5 nM for E42K (designed binder) SMEEEVEKAAKEYEKKKKEAIEKHLEKLKAKDKEAAERFLKKLEEAAKEYAKDEAKTMSEEEAKRRAKKYKEKVLLSELSEEEQKEIKEAEEKLVRTILKYVEEAAK ? Not satisfied

In plain terms: is recorded apparent Kd (screen) at least 0.5 nM for A20G (designed binder) SMEEEVEKAAKEYEKKKKEGIEKHLEKLKAKDKEAAERFLKELEEAAKEYAKDEAKTMSEEEAKRRAKKYKEKVLLSELSEEEQKEIKEAEEKLVRTILKYVEEAAK ? Satisfied

In plain terms: is recorded apparent Kd (screen) at least 0.5 nM for L79C (designed binder) SMEEEVEKAAKEYEKKKKEAIEKHLEKLKAKDKEAAERFLKELEEAAKEYAKDEAKTMSEEEAKRRAKKYKEKVLLSECSEEEQKEIKEAEEKLVRTILKYVEEAAK ? Satisfied
